System: panel of nearly 500 cancer cell lines
Assay: Cancer Cell Line Encyclopedia profiling, 3-day CellTiter-Glo
Format: cell-based
Details: chl1 (skin); read-out: IC50
observed property: IC50

Please report the measured IC50 for CC(=O)c1c(C)c2cnc(Nc3ccc(N4CCNCC4)cn3)nc2n(C2CCCC2)c1=O
> 8 µM

----------
System: MCF-7
Test: cells
Format: cell-based
Conditions: Homo sapiens, MCF7; MCF-7, 72 h
observed property: IC50 (nM)
Numbers only, in nM.

Please report the measured IC50 for CN(C)C(=O)c1cc2cnc(Nc3ccc(N4CCNCC4)cn3)nc2n1C1CCCC1
180

----------
System: TE-10
Assay: cells
Format: cell-based
Conditions: Homo sapiens, TE-10, 72 h
observed property: IC50

Please report the measured IC50 for CN(C)C(=O)c1cc2cnc(Nc3ccc(N4CCNCC4)cn3)nc2n1C1CCCC1
> 10 µM
